Provide the reported pIC50 of each item.
Target: Escherichia coli DNA gyrase A/B tetramer (Escherichia coli, UniProt P0AES4+P0AES6)
Assay: DNA gyrase supercoiling activity fluorescence polarisation assay
Type: biochemical
Give bare numbers, as −log10 of the molar value.

Worked examples follow.
- Molecule: "C[C@@H]1CN2c3c(cc(/C=N/N4CCCC4)c(F)c3F)CC3(C(=O)NC(=O)NC3=O)[C@H]2[C@H](C)O1 (relative stereo)"
  pIC50: 5.65
- Molecule: "C[C@H]1CN2c3c(cc(C#Cc4ncccn4)c(F)c3F)CC3(C(=O)NC(=O)NC3=O)[C@@H]2[C@@H](C)O1 (relative stereo)"
  pIC50: 6.28
- Molecule: "C[C@H]1CN2c3c(cc(C#Cc4cncs4)c(F)c3F)CC3(C(=O)NC(=O)NC3=O)[C@@H]2[C@@H](C)O1 (relative stereo)"
  pIC50: 6.15

Attention now turns to another entry.
Let me know recorded pIC50 for C[C@H]1CN2c3c(cc(C#Cc4cccs4)c(F)c3F)CC3(C(=O)NC(=O)NC3=O)[C@@H]2[C@@H](C)O1 (relative stereo) , thanks.
5.84

* * *

Biological target: Escherichia coli DNA gyrase A/B tetramer (Escherichia coli, UniProt P0AES4+P0AES6)
Assay: DNA gyrase supercoiling activity fluorescence polarisation assay
Assay type: biochemical
Observed Property: pIC50
One number for each entry, as −log10 of the molar value.

Worked examples follow.
- Molecule: "C/C(=N\\NC(=O)CC#N)c1cc2c(c(F)c1F)N1C[C@@H](C)O[C@@H](C)[C@@H]1C1(C2)C(=O)NC(=O)NC1=O (relative stereo) [Example 53]"
  pIC50: 5.79
- Molecule: "C[C@H]1CN2c3c(cc(C#Cc4ncc[nH]4)c(F)c3F)CC3(C(=O)NC(=O)NC3=O)[C@@H]2[C@@H](C)O1 (relative stereo) [Example 16]"
  pIC50: 6.16

Attention now turns to another entry.
Let me know recorded pIC50 for C[C@@H]1CN2c3cc(F)c(C#Cc4nc5ccccc5o4)cc3CC3(C(=O)NC(=O)NC3=O)[C@H]2[C@H](C)O1 (relative stereo) [Example 35] , thanks.
5.83

* * *

Biological target: Escherichia coli DNA gyrase A/B tetramer (Escherichia coli, UniProt P0AES4+P0AES6)
Assay: DNA gyrase supercoiling activity fluorescence polarisation assay
Format: biochemical
Details: 5 nM enzyme, 0.3 mM ATP, relaxed plasmid, fluorescence anisotropy readout; read-out: E. coli DNA gyrase supercoiling IC50
Observed Property: IC50 (nM)
One number for each entry, in nM.

Worked examples follow.
- Compound: "Cc1nnc(C#Cc2cc(F)c3c(c2)C(=O)C2(CNC(=O)NC2=O)[C@H]2[C@H](C)O[C@H](C)CN32)s1 (relative stereo) [Example 37]"
  Observed Property: "IC50"
  Test Result: 940
- Compound: "C[C@@H]1CN2c3c(cc(C(=O)NC4CCN(C(=O)OC(C)(C)C)C4)c(F)c3F)CC3(C(=O)NC(=O)NC3=O)[C@H]2[C@H](C)O1 (relative stereo) [Example 63]"
  Observed Property: "IC50"
  Test Result: 6400
- Compound: "C[C@@H]1CN2c3c(F)cc(C#Cc4cncs4)cc3CC3(C(=O)NC(=O)NC3=O)[C@H]2[C@H](C)O1 (relative stereo) [Example 39]"
  Observed Property: "IC50"
  Test Result: 870

Attention now turns to another entry.
Let me know recorded IC50 for C[C@@H]1CN2c3cc(F)c(C#Cc4nccn4C)cc3C(=O)C3(CNC(=O)NC3=O)[C@H]2[C@H](C)O1 (relative stereo) [Example 30] , thanks.
1150
